Listed here are molecules together with their documented growth inhibition.
# Measurement notes: NCI Yeast Anticancer Drug Screen. Data for the mec2-1 strain (AID 157)
# Condition description: S. cerevisiae mec2-1 strain, at 50.0 µM (retest, dose inferred, filed as 5.0), hits give high values
Compounds without any hit were thinned out: in the full panel of roughly 79,000, 15% have a hit.
Express the result in % but write the number alone.

As a guide, the following entries are already answered.
# Molecule, growth inhibition [%]
records = [
    ("CN1CCc2ccccc2C1Cc1ccccc1NC(=O)c1sc2ccccc2c1Cl (stereo not drawn)", 68),
    ("O=C1C2C=CC1C1C(=O)OC(=O)C21 (stereo not drawn)", 58),
    ("COc1cc(C2SCC(=O)N2c2ccc(-c3ccc(-n4c(-c5ccccc5)nc5ccccc5c4=O)cc3)cc2)cc(OC)c1OC (stereo not drawn)", 3),
    ("COC1C=COC2(C)Oc3c(C)c(O)c4c(c3C2=O)/C(=N/C2CCC(O)OC2C)C=C(NC(=O)/C(C)=C\\C(=O)C2CC2C(O)C(C)C(O)C(C)C(OC(C)=O)C1C)C4=O (stereo not drawn)", 27),
]

Recorded growth inhibition of "O=C(CCCN1CCC(O)(c2ccc(Cl)cc2)CC1)c1ccc(F)cc1" , please.
100

Please answer likewise for "O=C1C=CC(=Nc2ccc3c(c2)Cc2cc(NC(=O)C(F)(F)F)ccc2-3)O1"
95

Please answer likewise for "O=C(CC(=O)n1nc(-c2ccccc2)c(N=Nc2ccccc2C(=O)O)c1-c1ccccc1)Nc1ccc(Cl)cc1"
4

Please answer likewise for "O=[N+]([O-])c1ccc(=S)[nH]c1"
88

Please answer likewise for O=C1C2C(C(=O)N1c1ccc(OCc3ccccc3)cc1)C1c3ccccc3C2C2CCCCN21 (stereo not drawn)
19

Please answer likewise for "C/C(=N\NC(=S)SCc1ccccc1)c1ccccn1"
96

Please answer likewise for "O=C(O)c1cccc(-c2c3ccc(=O)cc-3oc3cc(O)ccc23)c1"
99

Please answer likewise for O=C(O)C1OC1(c1cccc(Cl)c1)c1ccccc1Cl (stereo not drawn)
61

Please answer likewise for COc1cc(C2C3=C(COC3=O)Oc3cc4c(cc32)OCO4)ccc1O (stereo not drawn)
-10

Please answer likewise for "CCC/C(Cl)=N\OC(=O)Nc1ccc(Br)cc1"
99

Please answer likewise for C(CCSC1=NCCN1)CSC1=NCCN1 (tested in a mixture with another compound)
99

Please answer likewise for COc1ccccc1C(=O)OCC1CCCN2CCCCC12 (stereo not drawn)
99

Please answer likewise for OC(COc1cccc2ccccc12)CN1CCOCC1 (stereo not drawn)
46

Please answer likewise for "O=[N+]([O-])c1cccc2nccc(NCCCO)c12"
52

* * *

# Measurement notes: NCI Yeast Anticancer Drug Screen. Data for the mlh1 strain (AID 171);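 note: 0% = growth of vehicle-treated control cultures of the same strain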
# Condition description: S. cerevisiae mlh1 strain growth inhibition; at 1.2 µM; hits give high values
The panel holds about 79,000 compounds, 15% with a hit somewhere; the sample as a whole holds those more often.
Listed here are compounds together with their documented growth inhibition.
Express the result in % but write the number alone.

As a guide, the following entries are already answered.
# Compound, growth inhibition / %
rows = [
    ("O=C(Nc1ccccc1)C(=O)C(C(=O)c1ccccc1)C(c1ccccc1)c1ccccc1 (centres undefined)", 3),
    ("CC(C)(Br)C(=O)/C=C/c1ccc(Cl)c(Cl)c1", -2),
    ("CC(=O)OCC(=O)C1(O)CCC2C3CCC4CCCCC4(C)C3CCC21C (centres undefined)", -2),
    ("O=[N+]([O-])c1ccc2c(c1)C(N1CCN(CCO)CC1)Cc1ccc(F)cc1S2 (centres undefined)", -3),
    ("Cc1ccc(-n2cc(-c3ccc(Cl)cc3)c(C#N)c2N)cc1", -6),
]

Recorded growth inhibition of FC(F)(F)c1cc(NC(=S)N2c3ccccc3-n3cccc3C2c2cccnc2)cc(C(F)(F)F)c1 (centres undefined) , please.
-2

Please answer likewise for "CCN(CC)[P+](c1ccccc1O)(N(CC)CC)N(CC)CC"
-60

Please answer likewise for C=C1CC(Cn2cc(Br)c(=O)[nH]c2=O)(c2ccc(-c3ccccc3)cc2)OC1=O (centres undefined)
2

Please answer likewise for "C/C(=N\NC(=S)SCc1ccccc1)c1ccccn1"
13

Please answer likewise for "Cc1ccc(N)c(S)c1"
-19

Please answer likewise for CC1C(NNc2ccccc2)Oc2cc3c(cc2C1c1ccccc1O)OCO3 (centres undefined)
-6

Please answer likewise for "[N-]=N[N+]#I1OC(C(F)(F)F)(C(F)(F)F)c2ccccc21"
53

* * *

Listed here are compounds together with their documented growth inhibition.
# Measurement notes: NCI Yeast Anticancer Drug Screen. Data for the bub3 strain (AID 167)
# Condition description: S. cerevisiae bub3 mutant strain, at 50.0 µM (retest, dose inferred, filed as 5.0), hits give high values
About 79,000 compounds went through this panel and 15% of them were active in at least one assay; those are over-represented in the sample as a whole.
Express the result in % but write the number alone.

Recorded growth inhibition of "O=S(=O)(CCCl)c1ccccc1Cl" , please.
80

Please answer likewise for "OC(c1ccc(F)cc1)(c1ccc(F)cc1)C1CC1"
81

Please answer likewise for "O=C(N=Nc1cc(Cl)ccc1Cl)NNc1cc(Cl)ccc1Cl"
81

* * *

# Measurement notes: NCI Yeast Anticancer Drug Screen. Data for the mlh1 rad18 strain (AID 175)
# Condition description: S. cerevisiae mlh1 rad18 strain growth inhibition; at 5.0 µM (retest, dose inferred, filed as 0.5); hits give high values
About 79,000 compounds went through this panel and 15% of them were active in at least one assay; those are over-represented in the sample as a whole.
Property measured: growth inhibition (%)
Express the result in % but write the number alone.

As a guide, the following entries are already answered.
# Molecule, Scale unit, growth inhibition
rows = [
    ("CCCCCCCCCCCC1=C(O)C(=O)C=C(O)C1=O", "%", 41),
    ("CC1(C)C(=O)OC(n2cc(F)c(=O)[nH]c2=O)C1=O (stereo not given)", "%", 13),
    ("CN1c2ccc(Cl)cc2C(=O)NC1c1ccc([N+](=O)[O-])s1 (stereo not given)", "%", 2),
    ("CC(C)c1ccccc1NC(=O)/C(Cl)=C(\\Cl)C(=O)O", "%", 21),
]

API: the following record is the query input.
Recorded growth inhibition of "CCCCCCc1cc(C(=O)OC/C(C)=N/NC(N)=O)c2ccccc2n1" , please.
-4

* * *

# Measurement notes: NCI Yeast Anticancer Drug Screen. Data for the mec2-1 strain (AID 157)
# Condition description: S. cerevisiae mec2-1 strain, at 50.0 µM
The panel holds about 79,000 compounds, 15% with a hit somewhere; the sample as a whole holds those more often. Calls of active or inactive are those of the source. Rule as the data show it: active = growth inhibition above about 70%; inactive = the rest.
Could you please pick one outcome from this set? true (1) = active, false (0) = inactive

Answered cases to consult:
# Molecule, Group label
records = [
    ("O=C1C=CC(=O)c2c(O)c(Nc3ccc(OC(F)(F)F)cc3)c(Cl)c(O)c21", "false (0)"),
    ("CSC1=NNC(SC)=NN1", "false (0)"),
    ("CCC#CCCCOC(=O)c1cc([N+](=O)[O-])cc([N+](=O)[O-])c1", "true (1)"),
    ("COC1=CC(=O)C2C(C1=O)C(c1ccc(Cl)cc1)[C@@H]2C (some centres undefined)", "true (1)"),
    ("O=C1OC(CCl)CN1/N=C/c1ccc([N+](=O)[O-])o1 (centres undefined)", "false (0)"),
    ("CC(C)OC(=O)Oc1ccccc1OC(=O)OC(C)C", "false (0)"),
]

Okay, next one:
What did the test return for "CC(C)/C(Cl)=N\OC(=O)Nc1cccc(Cl)c1" ?
true (1)

* * *

# Measurement notes: NCI Yeast Anticancer Drug Screen. Data for the mgt1 strain (AID 153)
# Condition description: S. cerevisiae mgt1 mutant growth inhibition; at 11.0 µM; hits give high values
This is part of a sample that, as a whole, favours compounds with a hit. Of some 79,000 tested, about 15% had one in any assay.
Listed here are compounds together with their documented growth inhibition.
Express the result in % but write the number alone.

As a guide, the following entries are already answered.
# Molecular string, Scale unit, growth inhibition
records = [
    ("O=C(NCCCCCCCN1CCCCCCC1)C(C1CCCCC1)C1CCCCC1", "%", 97),
    ("CC1=C(C)Cc2c(O)ccc(O)c2C1", "%", 6),
    ("COc1ccc2c(c1)C(=O)c1ccccc1C2", "%", 5),
]

API: the following record is the query input.
Recorded growth inhibition of "O=C1c2ccccc2C(=O)c2c(NC3CCCCC3)ccc(Nc3ccc(S(=O)(=O)O)cc3)c21" , please.
-2

* * *

# Measurement notes: NCI Yeast Anticancer Drug Screen. Data for the rad52 strain (AID 147);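 note: 0% = growth of vehicle-treated control cultures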
# Condition description: S. cerevisiae rad52 mutant growth inhibition; at 11.0 µM
This is part of a sample that, as a whole, favours compounds with a hit. Of some 79,000 tested, about 15% had one in any assay. The source made the active and inactive calls. No stated cut-off is given here; in the data, active means growth inhibition above about 70%; inactive means the rest.
Could you please pick one outcome from this set? true (1) (active), false (0) (inactive)

Answered cases to consult:
# Molecular string, Group label
rows = [
    ("CCN(CC)CCC(=O)c1ccc(Oc2ccc(F)cc2)cc1", "false (0)"),
    ("O=[N+]([O-])c1cc(CCl)ccc1CCl", "false (0)"),
    ("Cc1ccc(N)c(S)c1", "false (0)"),
]

What did the test return for "COc1ccc2nc3cccc([N+](=O)[O-])c3c(NCCN(CCO)CCO)c2c1" ?
true (1)

Please answer likewise for "CC(/C=C/c1ccc(Cl)cc1)=N\NC(=S)NCC(C)C"
false (0)

Please answer likewise for "COc1ccc2c(c1)C(=O)c1ccccc1C2"
false (0)
